Target: human ACAT2 (Homo sapiens)
Sequence (O75908 1-522): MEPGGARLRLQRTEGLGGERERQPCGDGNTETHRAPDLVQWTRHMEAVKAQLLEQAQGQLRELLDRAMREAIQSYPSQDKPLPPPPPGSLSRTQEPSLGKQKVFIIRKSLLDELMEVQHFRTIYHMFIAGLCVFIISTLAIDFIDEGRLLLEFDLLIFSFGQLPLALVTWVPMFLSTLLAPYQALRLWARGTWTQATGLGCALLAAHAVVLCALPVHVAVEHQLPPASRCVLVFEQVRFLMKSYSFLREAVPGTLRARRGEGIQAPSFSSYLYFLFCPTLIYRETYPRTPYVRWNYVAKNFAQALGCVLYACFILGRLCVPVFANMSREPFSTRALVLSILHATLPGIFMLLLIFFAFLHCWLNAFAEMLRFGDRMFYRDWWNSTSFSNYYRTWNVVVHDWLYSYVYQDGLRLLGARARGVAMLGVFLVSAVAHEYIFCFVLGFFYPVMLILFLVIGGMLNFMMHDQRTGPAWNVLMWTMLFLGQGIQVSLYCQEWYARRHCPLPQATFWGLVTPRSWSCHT
Experiment: Fluorescent NBD-cholesterol esterification assay in AC29 stable transfectants, Table 2
Type: cell-based
Conditions: Table 2, second IC50 column (head repeats huACAT1); AC29 transfectants, NBD-cholesterol; read-out: IC50 huACAT1
pIC50: −log10 of the molar value.
Outcome Measure: pIC50

{"Molecule": "CCCCCCCCCCCCn1nnc(C(C(=O)Nc2c(C(C)C)cccc2C(C)C)c2ccccc2)n1 (stereo not shown) [Compound 3]", "Endpoint Value": 6.29}
{"Molecule": "CCCCCCCCCCCCCOC(=O)C(C(=O)Nc1c(C(C)C)cccc1C(C)C)c1ccccc1 (stereo not shown) [Compound 2]", "Endpoint Value": 7.68}

P: CCCCC[C@H]1C=C[C@@H](CCCCC)SC1[C@@H](C)Nc1c(SC)cc(C)nc1SC (stereo partly shown) [Compound 6]
Q: Cc1ccc2oc(CN(Cc3ccccc3)C(=O)Nc3c(F)cc(F)cc3F)c(-c3ccc(Cl)cc3)c2c1 [Compound 5]
Q: Sorting by pIC50 in descending order, would P or Q appear first? # respond with the chosen item's label
Ans: P

====

target: human ACAT1 (Homo sapiens, UniProt P35610, Q526R); construct: expressed in transfected cells; assay: Fluorescent cell-based assay measuring esterification of NBD-cholesterol in AC29 cells expressing huACAT1; conditions: Table 2, first IC50 column; AC29 cells expressing huACAT1, 1 μg/ml NBD-cholesterol, 6 hr; read-out: IC50 huACAT1
pIC50: −log10 of the molar value.
Outcome Measure: pIC50

{"Compound": "CCCCC[C@H]1C=C[C@@H](CCCCC)SC1[C@@H](C)Nc1c(SC)cc(C)nc1SC (some centres unmarked)", "pIC50": 8.74}
{"Compound": "CCCCCCCCCCCCn1nnc(C(C(=O)Nc2c(C(C)C)cccc2C(C)C)c2ccccc2)n1 (centres unmarked)", "pIC50": 5.70}
{"Compound": "Cc1ccc2oc(CN(Cc3ccccc3)C(=O)Nc3c(F)cc(F)cc3F)c(-c3ccc(Cl)cc3)c2c1", "pIC50": 8.22}

P: CCCCCCCCC(C)(C)C(=O)Nc1c(OC)cc(OC)cc1OC
Q: CCCCCCCCCCCCCOC(=O)C(C(=O)Nc1c(C(C)C)cccc1C(C)C)c1ccccc1 (centres unmarked)
Q: Lower value of pIC50 belongs to which: P or Q ? Answer by stating the label of the chosen item.
Ans: P
(P: 6.27, Q: 7.70)

====

Target: human ACAT1 (Homo sapiens, UniProt P35610, Q526R)
Construct: expressed in transfected cells
Sequence (P35610 1-550 Q526R): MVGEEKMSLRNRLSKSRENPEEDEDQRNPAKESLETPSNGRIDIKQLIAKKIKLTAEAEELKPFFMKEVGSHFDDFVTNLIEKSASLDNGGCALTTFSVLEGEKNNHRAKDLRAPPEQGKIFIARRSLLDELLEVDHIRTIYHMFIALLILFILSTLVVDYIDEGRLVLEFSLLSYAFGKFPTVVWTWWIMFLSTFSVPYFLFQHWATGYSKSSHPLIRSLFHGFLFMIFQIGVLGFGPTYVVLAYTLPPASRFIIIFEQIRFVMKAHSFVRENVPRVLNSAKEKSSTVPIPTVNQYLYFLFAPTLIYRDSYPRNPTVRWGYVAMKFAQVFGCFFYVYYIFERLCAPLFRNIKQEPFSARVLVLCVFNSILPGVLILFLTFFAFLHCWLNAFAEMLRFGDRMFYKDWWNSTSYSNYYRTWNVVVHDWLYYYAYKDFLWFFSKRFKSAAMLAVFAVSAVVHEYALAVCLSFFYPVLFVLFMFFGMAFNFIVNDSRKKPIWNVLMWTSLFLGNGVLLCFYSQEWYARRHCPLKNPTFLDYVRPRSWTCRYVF
Test: Fluorescent cell-based assay measuring esterification of NBD-cholesterol in AC29 cells expressing huACAT1
Outcome Measure: pIC50
Formally, pIC50 is defined as -log10 of the concentration c, with c in mol/L.

Q: Indicate the recorded pIC50 value for this compound: CC(C)c1cccc(C(C)C)c1OC(=O)NS(=O)(=O)Oc1c(C(C)C)cccc1C(C)C
Ans: 5.62

====

Target: human ACAT2 (Homo sapiens, UniProt O75908)
Sequence (O75908 1-522): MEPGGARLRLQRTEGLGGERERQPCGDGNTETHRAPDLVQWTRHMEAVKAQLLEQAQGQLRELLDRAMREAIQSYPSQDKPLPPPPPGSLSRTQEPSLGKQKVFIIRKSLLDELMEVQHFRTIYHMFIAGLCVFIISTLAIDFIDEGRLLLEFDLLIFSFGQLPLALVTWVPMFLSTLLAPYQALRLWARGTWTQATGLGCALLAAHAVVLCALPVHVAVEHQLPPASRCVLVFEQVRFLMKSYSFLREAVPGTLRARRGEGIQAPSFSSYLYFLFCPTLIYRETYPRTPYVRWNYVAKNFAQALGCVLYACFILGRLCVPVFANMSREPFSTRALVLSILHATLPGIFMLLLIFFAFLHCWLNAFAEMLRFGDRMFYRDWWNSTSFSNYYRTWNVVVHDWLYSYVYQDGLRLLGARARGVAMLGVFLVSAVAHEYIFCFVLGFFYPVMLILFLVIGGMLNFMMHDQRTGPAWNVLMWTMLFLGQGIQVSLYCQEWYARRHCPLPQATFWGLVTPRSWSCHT
Assay: Fluorescent NBD-cholesterol esterification assay in AC29 stable transfectants, Table 2
Format: cell-based
Outcome Measure: pIC50
pIC50 is defined as minus the log10 of a concentration measured in mol/L.

Q: Give pIC50 for CC(C)c1cccc(C(C)C)c1OC(=O)NS(=O)(=O)Oc1c(C(C)C)cccc1C(C)C [Compound 1]
Ans: 6.36
